Value source: patent US20190225691A1

Catalogue of Improvement over ref-1 values
# Study system: T1, human PD-L1 ECD-His (human, UniProt Q9NZQ7 19-238)
# T1 construct: extracellular domain; Analyte in all SPR and BLI runs; also called hPD-L1_ECD-His; hPD-L1 ECD-His; not shown: His tag
# T1 sequence (Q9NZQ7 19-238): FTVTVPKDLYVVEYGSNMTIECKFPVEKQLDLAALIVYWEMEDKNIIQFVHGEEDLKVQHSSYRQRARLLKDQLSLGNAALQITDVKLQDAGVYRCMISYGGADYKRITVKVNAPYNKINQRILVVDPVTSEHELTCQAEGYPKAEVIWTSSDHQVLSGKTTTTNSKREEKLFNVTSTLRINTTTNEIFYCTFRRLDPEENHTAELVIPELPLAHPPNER
# Experiment notes: SPR, ratio of KD to ref-1
# output: bare number, implied unit fold

Form field: reported Improvement over ref-1 of PL2#3 IgG2 (antibody, V domains shown, Human IgG2 backbone) VH: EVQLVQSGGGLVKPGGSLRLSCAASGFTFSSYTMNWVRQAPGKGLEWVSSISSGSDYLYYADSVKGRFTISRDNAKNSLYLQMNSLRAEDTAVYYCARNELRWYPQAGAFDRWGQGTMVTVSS VL: QSVVTQPPSMSAAPGQRVTISCSGSSSYIESSYVGWYQQLPGTAPRLLIYDDDMRPSGIPDRFSGSKSGTSATLAITGLQTGDEADYYCEIWRSGLGGVFGGGTKLTVL
16.3
